- tested-system: JAK3 (Homo sapiens, UniProt P52333)
- Construct: endogenous in cells
- Sequence (P52333 whole entry): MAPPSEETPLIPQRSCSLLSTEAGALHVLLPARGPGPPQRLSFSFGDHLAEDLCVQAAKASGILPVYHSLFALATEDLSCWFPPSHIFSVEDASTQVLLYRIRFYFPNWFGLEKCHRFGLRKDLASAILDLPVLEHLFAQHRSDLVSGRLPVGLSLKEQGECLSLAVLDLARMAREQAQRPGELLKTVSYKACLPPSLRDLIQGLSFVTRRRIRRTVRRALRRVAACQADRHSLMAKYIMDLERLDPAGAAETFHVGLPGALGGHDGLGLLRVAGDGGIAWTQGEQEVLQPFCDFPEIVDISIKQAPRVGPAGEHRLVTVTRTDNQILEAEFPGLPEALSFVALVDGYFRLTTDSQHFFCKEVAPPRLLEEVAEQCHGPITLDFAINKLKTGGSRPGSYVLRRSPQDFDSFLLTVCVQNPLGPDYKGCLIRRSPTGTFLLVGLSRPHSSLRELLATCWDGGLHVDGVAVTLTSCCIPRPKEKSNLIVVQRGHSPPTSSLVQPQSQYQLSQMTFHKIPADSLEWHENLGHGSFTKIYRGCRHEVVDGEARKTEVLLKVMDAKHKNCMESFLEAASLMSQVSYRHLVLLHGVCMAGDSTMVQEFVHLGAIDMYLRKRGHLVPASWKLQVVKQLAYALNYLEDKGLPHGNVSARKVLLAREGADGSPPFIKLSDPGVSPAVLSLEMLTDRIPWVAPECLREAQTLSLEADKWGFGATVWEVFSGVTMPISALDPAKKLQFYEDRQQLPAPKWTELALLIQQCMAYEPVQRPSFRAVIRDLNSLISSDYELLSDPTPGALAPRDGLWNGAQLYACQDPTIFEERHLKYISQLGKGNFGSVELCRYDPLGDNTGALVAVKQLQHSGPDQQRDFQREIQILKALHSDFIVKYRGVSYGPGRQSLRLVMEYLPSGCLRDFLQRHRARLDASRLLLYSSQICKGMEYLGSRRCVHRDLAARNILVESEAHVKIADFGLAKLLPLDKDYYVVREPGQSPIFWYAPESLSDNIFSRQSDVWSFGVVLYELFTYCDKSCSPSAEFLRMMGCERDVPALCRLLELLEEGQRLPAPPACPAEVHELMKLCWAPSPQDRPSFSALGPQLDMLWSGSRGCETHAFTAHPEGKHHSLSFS
- procedure-summary: Kinobeads assay, JAK3
- experimental-parameters: mixed Molt4/Ramos cell lysate, dot blot detection
pIC50: −log10 of the molar value.
measured-metric: pIC50

{"molecule": "Fc1ccccc1Cn1ncc2cnc(Nc3cnn(CCCN4CCOCC4)c3)nc21", "measured-metric": "pIC50", "result": "> 7.00"}
{"molecule": "Fc1ccccc1Cn1ncc2cnc(Nc3cnn(CCCN4CCCCC4)c3)nc21", "measured-metric": "pIC50", "result": "> 7.00"}
{"molecule": "OCCn1cc(Nc2ncc3cnn(Cc4c(F)cccc4F)c3n2)cn1", "measured-metric": "pIC50", "result": "> 7.00"}
{"molecule": "Cn1cc(Nc2ncc3cnn(Cc4cccc5c4OCO5)c3n2)cn1", "measured-metric": "pIC50", "result": "> 7.00"}

Consider the molecule NC(=O)n1cc(Nc2ncc3cnn(Cc4ccccc4F)c3n2)cn1 and give its measured pIC50. 6.00 to 7.00

And for COc1nn(CCO)cc1Nc1ncc2cnn(Cc3cc(F)ccc3F)c2n1 ? > 7.00

Param item: Cn1cc(Nc2ncc3cnn(Cc4c(F)cccc4Cl)c3n2)cn1 > 7.00

Likewise for N#CCCn1cc(Nc2ncc3cnn(Cc4ccccc4C#N)c3n2)cn1 ? > 7.00
